# target-desc: human GLP-1 receptor (human, UniProt P43220 24-463)
# procedure-details: cell-based or functional assay
Non-standard residues stand in square brackets, D forms with d. No end group written: not given here. Aib = CC(C)(N)C(=O)O
EC50 CreLuc hGLP1R 0.5% hP vs 200 pM: less than gives met; not less than gives not met.

1. Y[Aib]EGTFTSDYSI[Aib]LEKQAQ[Aib]AFVQWLIKGGPEEGASLRHYYNWLTRQRY-NH2 (not fully specified (residue 28)) [Compound 108]
not met
2. YXEGTFTSDYSIXLEKQAQXAFVEWLIKGGQSSGASLRHYYNWLTRQRY (Aib at 2, 13, 20; K28 side chain: C20DA-gGlu-gGlu-gGlu-gGlu-gGlu-gGlu-eLys; C-terminal NH2) [Compound 123]
not met
3. YXEGTFTSDYSIXLEKQAQXAFVQWLIKGGPEEGASLRHYYNWLTRQRY (Aib at 2, 13, 20; K28 side chain: C20DA-gGlu-gGlu-gGlu-gGlu-gGlu-gGlu-eLys; C-terminal NH2) [Compound 89]
not met
4. YXEGTFTSDYSIXLEKQAQXAFVEWLIKGGPSEYESLRHYYNWLTRQRY (Aib at 2, 13, 20; K28 side chain: C20DA-gGlu-gGlu-gGlu-gGlu-gGlu-gGlu-eLys; C-terminal NH2) [Compound 93]
not met
5. YXEGTFTSDYSIXLEKQAQXAFVEWLIKGGPSSGASXRHYYNWLTRQRY (Aib at 2, 13, 20, 37; K28 side chain: C20DA-gGlu-gGlu-gGlu-gGlu-gGlu-gGlu-eLys; C-terminal NH2) [Compound 118]
met
